// reported pKd for each item listed
Target: Serine/threonine-protein kinase PLK1 (Homo sapiens)
Sequence (P53350 whole entry): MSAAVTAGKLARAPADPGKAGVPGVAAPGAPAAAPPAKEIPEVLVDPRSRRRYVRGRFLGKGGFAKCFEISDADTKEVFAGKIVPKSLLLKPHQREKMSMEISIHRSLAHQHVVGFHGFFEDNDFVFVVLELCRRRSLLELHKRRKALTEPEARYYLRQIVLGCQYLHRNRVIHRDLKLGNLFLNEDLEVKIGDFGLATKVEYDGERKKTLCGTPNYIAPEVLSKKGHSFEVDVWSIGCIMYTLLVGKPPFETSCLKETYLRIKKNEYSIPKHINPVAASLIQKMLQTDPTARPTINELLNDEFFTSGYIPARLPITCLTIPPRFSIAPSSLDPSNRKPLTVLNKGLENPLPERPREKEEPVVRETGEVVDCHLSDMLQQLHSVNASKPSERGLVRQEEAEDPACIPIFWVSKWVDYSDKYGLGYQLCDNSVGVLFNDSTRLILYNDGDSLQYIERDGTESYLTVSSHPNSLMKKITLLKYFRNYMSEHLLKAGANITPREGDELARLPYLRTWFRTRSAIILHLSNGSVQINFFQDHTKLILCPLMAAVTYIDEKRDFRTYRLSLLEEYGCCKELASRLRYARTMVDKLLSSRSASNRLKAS
Assay: Binding affinity to recombinant PLK1 (unknown origin) assessed as dissociation constant by SPR analysis
Keep in mind that pKd stands for -log10 of concentration in molar terms.

Any idea what pKd came out for COc1ccc(CNS(=O)(=O)c2ccc3c4c(cccc24)C(=O)N(CCN(C)C)C3=O)cc1 on Serine/threonine-protein kinase PLK1 (Homo sapiens)?
5.09

Param readout= pKd; system= Serine/threonine-protein kinase PLK1 (Homo sapiens); entry= COc1ccc(CNS(=O)(=O)c2ccc3c4c(cccc24)C(=O)N(CCN2CCCCC2)C3=O)cc1 ; returns value.
4.70

Record lookup: for Serine/threonine-protein kinase PLK1 (Homo sapiens), what pKd belongs to CN(C)CCN1C(=O)c2cccc3c(S(=O)(=O)NCc4ccccc4F)ccc(c23)C1=O ?
5.55

====

Biological target: Serine/threonine-protein kinase PLK1 (Homo sapiens)
Test: Binding affinity to recombinant PLK1 (unknown origin) assessed as dissociation constant by SPR analysis
observation-type: Kd (µM)
Write the answer as a number in µM, unit excluded.

>>> experimental_value("CN(C)CCN1C(=O)c2cccc3c(S(=O)(=O)NCc4ccc(F)cc4)ccc(c23)C1=O")
0.29

Can you share its Kd? I mean this compound: O=C1c2cccc3c(S(=O)(=O)NCc4ccc(C(F)(F)F)cc4)ccc(c23)C(=O)N1CCN1CCCC1
7.36

# input compound: Cc1ccc(CNS(=O)(=O)c2ccc3c4c(cccc24)C(=O)N(CCN2CCCC2)C3=O)cc1 ; wanted: its Kd
17.3

Values were extracted from ChEMBL document CHEMBL5550126.
